- measuredOn: Phosphatidylinositol 4,5-bisphosphate 3-kinase catalytic subunit delta isoform (Homo sapiens)
- Sequence (O00329 whole entry, canonical isoform): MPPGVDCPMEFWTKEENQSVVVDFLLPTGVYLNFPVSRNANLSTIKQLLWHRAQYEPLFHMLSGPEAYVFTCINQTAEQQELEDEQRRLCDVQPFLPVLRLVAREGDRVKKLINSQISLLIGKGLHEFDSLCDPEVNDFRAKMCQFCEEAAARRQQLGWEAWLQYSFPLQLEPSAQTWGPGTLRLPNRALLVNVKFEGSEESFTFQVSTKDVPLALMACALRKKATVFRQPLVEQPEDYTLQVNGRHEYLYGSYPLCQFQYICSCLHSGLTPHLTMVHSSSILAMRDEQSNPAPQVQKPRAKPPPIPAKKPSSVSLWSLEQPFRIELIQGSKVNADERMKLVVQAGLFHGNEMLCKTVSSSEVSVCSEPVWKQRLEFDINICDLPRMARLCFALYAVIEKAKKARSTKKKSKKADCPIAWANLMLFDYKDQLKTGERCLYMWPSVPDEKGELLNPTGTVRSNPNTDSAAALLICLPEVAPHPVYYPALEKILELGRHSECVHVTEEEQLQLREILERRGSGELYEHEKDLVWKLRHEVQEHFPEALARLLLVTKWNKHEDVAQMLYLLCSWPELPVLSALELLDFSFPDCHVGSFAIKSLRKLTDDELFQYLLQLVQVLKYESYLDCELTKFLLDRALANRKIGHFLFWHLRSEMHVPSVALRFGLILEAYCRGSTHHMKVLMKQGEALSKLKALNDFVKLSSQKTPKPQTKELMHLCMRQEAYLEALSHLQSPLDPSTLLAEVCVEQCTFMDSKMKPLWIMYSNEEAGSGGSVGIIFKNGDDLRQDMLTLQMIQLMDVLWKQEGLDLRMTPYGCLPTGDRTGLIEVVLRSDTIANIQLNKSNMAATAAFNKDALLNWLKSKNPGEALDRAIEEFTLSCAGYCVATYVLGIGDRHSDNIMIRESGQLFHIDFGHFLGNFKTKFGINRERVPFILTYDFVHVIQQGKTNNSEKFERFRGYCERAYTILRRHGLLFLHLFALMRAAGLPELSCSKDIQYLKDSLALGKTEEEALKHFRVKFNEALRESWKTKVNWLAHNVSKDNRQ
- protocolText: Scintillation Proximity Assay
quantityName: IC50

{"compound": "COc1c(C(C)n2nc(C)c3c(N)ncnc32)cc(Cl)c(C)c1-c1ccc(C(=O)N(C)CCO)nc1 (configuration not stated) [US9932341, Example 24]", "IC50": "< 10 nM"}

# context switch: different compound, same IC50
## Input I would be grateful if you could share the reported IC50 for COc1c(C(C)n2nc(C)c3c(N)ncnc32)cc(Cl)c(C)c1-c1cncnc1 (configuration not stated) [US9932341, Example 168] .
## Output < 10 nM
